Tested on: ATP;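 note: ATP exposure 15 min at 22 °C before imaging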
assay-explanation: switch fluorescence ratio, 500 uM ATP over buffer (Cy3 cluster intensity, sum of 5 cycles each) (fold (ratio)); higher = stronger signal-on switching upon ATP binding; sequences stand for … in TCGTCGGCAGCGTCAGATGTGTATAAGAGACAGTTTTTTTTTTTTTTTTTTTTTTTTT…TC
condition-set: aptamer strand: ATP DNA aptamer (quencher-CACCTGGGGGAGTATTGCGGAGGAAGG + anchor), 100 nM annealed; ATP concentration: 500 uM
endpoint-name: switch fluorescence ratio
Answer field: number only, no words.

// GGTATTAAGT : switch fluorescence ratio value = 1

Recorded switch fluorescence ratio (sequence TGGGGGGACT ): 1.02

Documented switch fluorescence ratio of AATTTGATGG : 0.995
